Listed molecules paired with reported T/C
system: CD2F1 mice, L1210 leukemia ip, survival T/C; experiment: NCI In Vivo Anticancer Drug Screen. Data for tumor model L1210 Leukemia (intraperitoneal) in CD2F1 (CDF1) mice; conditions: endpoint: mean survival time; dose: 400.0 mg/kg/injection; schedule: Q01DX009 (ip); vehicle: saline sonified; higher = longer survival
Inconclusive results and toxic doses are left out.

Give the measured T/C for `COCCOCCOCCOCCOCCOCCOCCOC(=O)Nc1ccc(C)c(NC(=O)OCCOCCOCCOCCOCCOCCOCCOC)c1`
93 % of control

Give the measured T/C for CCOC(=O)C(Cc1ccccc1C(=O)NC)c1ccccc1 (stereo not given)
92 % of control

Give the measured T/C for `COc1ccc2c(c1)c(C(=O)O)cc(=O)n2C`
95 % of control

Give the measured T/C for CS(=O)(=O)OCC(O)C(O)COS(C)(=O)=O (stereo not given)
100 % of control

Give the measured T/C for `CN1C(=O)CN=C(c2ccccn2)c2cc(Cl)ccc21`
102 % of control

* * *

system: CD2F1 mice, L1210 leukemia ip, survival T/C; assay: NCI In Vivo Anticancer Drug Screen. Data for tumor model L1210 Leukemia (intraperitoneal) in CD2F1 (CDF1) mice; details: endpoint: mean survival time; dose: 100.0 mg/kg/injection; schedule: Q04DX002 (ip); vehicle: saline; higher = longer survival
Inconclusive results and toxic doses are left out.
Listed molecules paired with reported T/C

Known results for molecules:
molecule	target-desc	property-label	value-observed
CCCCN=C(Cl)C(Cl)(c1ccccc1)c1ccccc1	CD2F1 mice, L1210 leukemia ip, survival T/C	T/C	98 % of control
CC1C(N2CCCCC2)CS1(=O)=O (stereo unspecified)	CD2F1 mice, L1210 leukemia ip, survival T/C	T/C	108 % of control
OC(O)(C(F)(F)F)C(F)(F)F	CD2F1 mice, L1210 leukemia ip, survival T/C	T/C	103 % of control
O=C(CCC(=O)NO)NO	CD2F1 mice, L1210 leukemia ip, survival T/C	T/C	101 % of control
CC(=O)C(C)(C)C	CD2F1 mice, L1210 leukemia ip, survival T/C	T/C	96 % of control

Now take the following molecule into account.
Look up and report T/C, with CD2F1 mice, L1210 leukemia ip, survival T/C as system, for `COc1ccccc1N1CCCSC1=Nc1ccccc1`
98 % of control

* * *

Listed compounds paired with reported T/C
system: CD2F1 mice, L1210 leukemia ip, survival T/C; assay: NCI In Vivo Anticancer Drug Screen. Data for tumor model L1210 Leukemia (intraperitoneal) in CD2F1 (CDF1) mice; details: endpoint: mean survival time; dose: 200.0 mg/kg/injection; schedule: Q04DX003 (ip); vehicle: acetone; higher = longer survival
Toxic doses and inconclusive results are not listed.

Known results for compounds:
compound	T/C
Cc1ccc(S(=O)(=O)OC2CC3CCC2C3)cc1 (centres undefined)	101 % of control
Cc1cc(C)c(C(=O)C(=S)N2CCOCC2)c(C)c1	104 % of control
O=C(NCCc1c[nH]c2ccccc12)c1cccnc1	96 % of control

Give the measured T/C for `COc1ccc2c(Br)cccc2c1`
94 % of control

* * *

Listed compounds paired with reported T/C
system: CD2F1 mice, L1210 leukemia ip, survival T/C; test: NCI In Vivo Anticancer Drug Screen. Data for tumor model L1210 Leukemia (intraperitoneal) in CD2F1 (CDF1) mice; details: endpoint: mean survival time; dose: 75.0 mg/kg/injection; schedule: Q01DX001 (ip); vehicle: saline; higher = longer survival
Toxic doses and inconclusive results are not listed.

compound	T/C
NC(=O)CC(NC(=O)C(F)(F)F)C(=O)O (stereo not drawn)	101 % of control

Now take the following compound into account.
Give the measured T/C for `CSC(I)(N(C)C)N(C)C`
98 % of control
